Each record here notes measured pIC50.
Tested on: MCF7/DX
Assay: Cytostatic activity in vitro, resistant breast cancer subline MCF7/DX (MDR-1)
Assay type: cell-based, human
Conditions: Homo sapiens, MCF7/DX; 72 h continuous exposure
# pIC50 is unitless: minus log10 of the molar concentration; print number only

Compound | Measurement kind | Result value
O=C1c2c(O)ccc(O)c2C(=O)c2c(NCCNCCO)ccc(NCCNCCO)c21 [Mitoxantrone, reference compound] | pIC50 | 6.33

Switching to the query record.
The compound listed as COc1cccc2c1C(=O)c1c(O)c3c(c(O)c1C2=O)C[C@@](O)(C(=O)CO)C[C@@H]3O[C@H]1C[C@H](N)[C@H](O)[C@H](C)O1 [Doxorubicin, reference compound] shows pIC50 equal to 6.03

---

Tested on: human promyelocytic leukemia cell line HL-60
Assay: Cytostatic activity in vitro, HL-60 sensitive line
Type: cell-based
Conditions: 50% inhibition of cell growth after 72 h continuous exposure; read-out: HL60 IC50
Source text: Tables 3 and 4 show cytostatic activity in vitro of 2,6-disubstituted and 2- or 6-monosubstituted (Tab.3), and of 2,5-disubstituted-(Tab.-4) tetracyclic anthrapyridazone derivatives using leukemia cell line HL-60 and the resistant cell sublines with resistance induced by vincristine (MDR-1) or doxorubicin (MRP). […]
Recorded pIC50 values for a group of molecules are listed next.
Quick note: pIC50 means taking -log10 of the concentration in moles per liter.

Molecule | pIC50
CN(C)CCn1nc2c3c(c(NCCNCCO)ccc3c1=O)C(=O)c1ccccc1-2 [Compound C-165] | 8.68
O=C1c2ccccc2-c2n[nH]c(=O)c3ccc(NCCNCc4ccccc4)c1c23 [PDZ-10] | 6.12
CCNCCNc1ccc2c(=O)n(CCN(C)C)nc3c2c1C(=O)c1ccccc1-3 [Compound C-180] | 8.66

Reported pIC50 ( CCN(CC)CCNc1ccc2c(=O)[nH]nc3c2c1C(=O)c1ccccc1-3 [PDZ-18] ) = 6.94

---

Test system: human promyelocytic leukemia cell line HL-60
Assay: Cytostatic activity in vitro, HL-60 sensitive line
Assay type: cell-based
Conditions: 50% inhibition of cell growth after 72 h continuous exposure; read-out: HL60 IC50
Measurement kind: pIC50
The quantity pIC50 is defined as the negative base-10 logarithm of the molar concentration.

See these solved cases before continuing.
Compound | pIC50
CC(=O)Nc1ccc2c(=O)n(CCN(C)C)nc3c2c1C(=O)c1ccccc1-3 [PDZ-14] | 7.55
CCCCNCCNc1ccc2c(=O)[nH]nc3c2c1C(=O)c1ccccc1-3 [PDZ-9] | 6.51
CN(C)CCn1nc2c3c(cccc3c1=O)C(=O)c1ccccc1-2 [PDZ-15] | 6.67
CN(C)CCn1nc2c3c(c(NCCN)ccc3c1=O)C(=O)c1ccccc1-2 [BS-121] | 8.89

Now for a further compound.
Entry CN(C)CCNc1ccc2c(=O)n(CCO)nc3c2c1C(=O)c1ccccc1-3 [Compound C-167] , pIC50 reported as 6.95

---

System: human prostate cancer cell line LNCaP
Experiment: Cytostatic activity in vitro, prostate cancer LNCaP
Assay type: cell-based
Conditions: 72 h continuous exposure
Entries annotated with measured pIC50
On this scale, pIC50 is minus log10 of a concentration expressed in M (mol/L).

Consider the following illustrative entries.
Compound | pIC50
CN(C)CCn1nc2c3c(cccc3c1=O)C(=O)c1ccccc1-2 [PDZ-15] | 6.49
CC(CNc1ccc2c(=O)n(CC(C)N(C)C)nc3c2c1C(=O)c1ccccc1-3)N(C)C (centres unmarked) [Compound C-123] | 7.28

Reported pIC50 of CN(C)CCn1nc2c3ccccc3c3nn(CCN(C)C)c4ccc(c1=O)c2c34 [Compound C-163] : 7.55

The value of pIC50 measured for the compound CN(C)CCn1nc2c3c(c(NCC(=O)N(C)C)ccc3c1=O)C(=O)c1ccccc1-2 [PDZ-12] turned out to be 6.63

# compound Nc1ccc2c(=O)n(CCN3CCCCC3)nc3c2c1C(=O)c1ccccc1-3 [PDZ-5] ; its pIC50 = 6.32
